Target: T1, human CD3 (human, UniProt P07766 23-207; P09693 23-182; P04234 22-171)
T1 construct: whole, on cells; also called CD3 on Jurkat T cells; CD3 on primary human T cells
Experiment: apparent KD (KDapp), flow cytometry titration on Jurkat cells
result_type: Kd
Kindly format the answer as number then unit.

Worked cases, answers included:
F332-5F2 (antibody, mouse IgG2b, V domains shown, also called F332-5F2-2; F332-5F2 (6G8, 13A3)) VH: QVQLQQPGAELGKPGTSVKLSCKASGYTFTSYWMHWVKQRPGQGLEWIGNINPNGGDSNYNEKFKSKATLTVDKSSSTAYMQLSTLTSEDSAVYYCTRDISGQYYFDFWGQGTSLTVFS VL: DILMSQSPSSLAVSAGEQVTMSCKSSQSLLNSRTRKNYLAWYQQKPGQSPKLLIFWASTRKSGVPDRFTGSGSGTYFTLTISSVQAEDLAVYYCTQSYNLRTFGGGTKLEIK    0.4 nM
F332-3E9 (antibody, mouse IgG2a, V domains shown, also called F332-3E9-2; F332-3E9 (12G4)) VH: QVQLQQPGAELGKPGTSVKLSCKASGYTFTSYWIHWLKQRPGQGLEWIGNINPNGGSINCNEKFTTKATLTIDKSSSTAYMQLSTLTSEDFAVYYCTRDTSGQYYFDYWGQGTTLTVSS VL: DIMMSQSPSSLAVSAGEKVTMSCKSSQSLLNSRTRKNYLAWYQQKPGQSPKLLIYWASTRESGVPDRFTGSGSGTDFTLTISSVQAEDLAVYYCTQSYHLRTFGGGTKLEIK    0.5 nM

Now consider a different binder.
Form field: reported Kd of F332-1E2 (antibody, mouse IgG2a, V domains shown, Sister clone 8C5 shares the same entries; also called F332-1E2-2; F332-1E2 (8C5)) VH: QVQLQQPGAELGKPGTSVKLSCKASGYTFTSYWIHWVKQRPGQGLEWVGNINPNSGSINYNEKFKNKATLTVDKSSSTAYMQLSTLTSEDFAVYYCTRDTSGQYYFDYWGQGTTLTVSS VL: DIVMSQSPSSLAVSAGERVTMSCKSSQSLLNSRTRKNYLAWYQQKPGQSPKLLIYWASTRESGVPDRFTGSGSGTDFTLTISSVQAEDLAVYYCIQSYHLRTFGGGTKLEIK
0.3 nM
